Can you tell me pIC50 for the items I'm about to list?
# System: cultured human mast cells
# ASSAY PROTOCOL: Degranulation inhibition test using cultured human mast cells (IgE cross-linking, β-Hexosaminidase release)
# Assay type: cell-based
# ASSAY CONDITIONS: Mast cell; Tables 1-x, compounds A; cultured human mast cells; read-out: human degranulation ave. IC50
pIC50: −log10 of the molar value.

[
  {
    "MOL": "Cc1ccnc(Nc2cccc(-c3cnc(N4CCC(O)CC4)s3)n2)c1",
    "TEST READOUT": "pIC50",
    "ENDPOINT RESULT": "> 7.00"
  },
  {
    "MOL": "Cc1ccnc(Nc2cccc(-c3cnc(N4CCC(C(=O)N5CCC(O)CC5)CC4)s3)n2)c1",
    "TEST READOUT": "pIC50",
    "ENDPOINT RESULT": "< 6.00"
  },
  {
    "MOL": "Cc1ccnc(Nc2cccc(-c3cnc(N4CCC[C@@H](C(=O)O)C4)s3)n2)c1",
    "TEST READOUT": "pIC50",
    "ENDPOINT RESULT": "6.00 to 7.00"
  }
]

Shift focus to the following entry.
(Q) # lookup: pIC50 of `Cc1ccnc(Nc2cccc(-c3cnc(N(C)C4CCNCC4)s3)n2)c1`
(A) < 6.00
